Values were extracted from PubChem BioAssay (Tox21).

- ASSAY_TARGET: Nuclear receptor subfamily 1 group I member 3 (Homo sapiens) (UniProt Q14994)
- Sequence (Q14994 whole entry, looked up): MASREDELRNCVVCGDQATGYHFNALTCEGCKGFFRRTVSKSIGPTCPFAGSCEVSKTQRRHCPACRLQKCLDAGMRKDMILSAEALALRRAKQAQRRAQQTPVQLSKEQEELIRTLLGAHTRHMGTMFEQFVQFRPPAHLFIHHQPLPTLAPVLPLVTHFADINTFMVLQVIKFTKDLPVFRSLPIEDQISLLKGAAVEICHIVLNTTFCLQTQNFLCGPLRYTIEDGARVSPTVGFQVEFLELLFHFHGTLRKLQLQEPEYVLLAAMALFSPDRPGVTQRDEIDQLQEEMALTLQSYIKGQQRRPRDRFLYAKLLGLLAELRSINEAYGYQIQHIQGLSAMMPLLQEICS
- TEST_DESCRIPTION: qHTS assay to identify small molecule agonists of the constitutive androstane receptor (CAR) signaling pathway (AID 1224839); further: nearly all actives have a fitted effect of over 15% in size;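 on activation: HepG2 cells stably carrying human CAR and a CYP2B6 luciferase reporter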
- PROTOCOL_CONDITIONS: HepG2 hCAR CYP2B6-luciferase, agonist mode, 24 h; series mostly up to 92.4 µM
- From the text: National Center for Advancing Translational Sciences [NCATS] NIH Chemical Genomics Center [NCGC] U.S. Environmental Protection Agency [EPA] National Institutes of Environmental Health Sciences [NIEHS] National Toxicology Program [NTP] […] Assay Protocol Summary: A double-stable (hCAR and CYP2B6-2.2kb) transfected cell line, derived from human hepatoma (HepG2) cells, was utilized for the duration of the quantitative high-throughput screens. […]
Inconclusive results are not listed. Activity calls are given as the source filed them. The call rests on the fitted dose curve; in most records, active means well fitted activation curve with a large enough effect in the repeat runs; inconclusive means weak or mixed curves; inactive means no such curve, though single readings can be large or run the other way.
Labels: active, inactive

C[C@@H]1O[C@@H](OC[C@H]2O[C@@H](Oc3c(-c4ccc(O)c(O)c4)oc4cc(O)cc(O)c4c3=O)[C@H](O)[C@@H](O)[C@@H]2O)[C@H](O)[C@H](O)[C@H]1O; inactive
C=CC(=O)OCCCCCCCC(C)C; inactive
O=C1N=C(O)CN1/N=C/c1ccc(-c2ccc([N+](=O)[O-])cc2)o1; inactive
CNC[C@H](O)[C@@H](O)[C@H](O)[C@H](O)CO; inactive
CCc1ccccc1O; inactive
Cc1cc(Cc2ccc(N)c(C)c2)ccc1N; active
CCOC(=O)C1OC1c1ccccc1 (stereo not drawn); inactive
O=C(O)c1ccc([N+](=O)[O-])cc1; inactive
COC(=O)c1ccc(C(=O)OC)cc1; inactive
CCCCCCCCCCCCOCC1CO1 (stereo not drawn); inactive
CC1COc2ccccc2N1C(=O)C(Cl)Cl (stereo not drawn); active
CCCCNC(N)=O; inactive
CCC(C)C=O (stereo not drawn); inactive

* * *

- TEST_DESCRIPTION: qHTS assay to identify small molecule antagonists of the estrogen receptor alpha (ER-alpha) signaling pathway using the BG1 cell line - cell viability counter screen (AID 743081);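 further: compound given together with 17beta-estradiol as the ER stimulus; nearly all actives have a fitted effect of over 45% in size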
- PROTOCOL_CONDITIONS: BG1Luc4E2 viability, CellTiter-Fluor, 22 h; series mostly up to 70.3 µM
Records with an inconclusive call do not appear. Active and inactive are the calls of the source. Calls follow the shape of the dose curve; as a rule, active = well fitted cell-killing curve with a large enough effect in the repeat runs; inconclusive = weak or mixed curves, or effect the other way; inactive = flat fitted curve, though single readings scatter.
PROPERTY_MEASURED: outcome

Oc1ccc(OCc2ccccc2)cc1; inactive
CNC[C@H](O)[C@@H](O)[C@H](O)[C@H](O)CO; inactive
CCC(C)C=O (configuration not stated); inactive
C=C(C)C(=O)OCC(CC)(COC(=O)C(=C)C)COC(=O)C(=C)C; inactive
Cc1cc(NS(=O)(=O)c2ccc(N)cc2)no1; inactive
Cc1cc(O)cc(C)c1Cl; inactive
CCCCC(CC)COC(C)=O (configuration not stated); inactive

* * *

- ASSAY_TARGET: Thyrotropin receptor (Homo sapiens) (UniProt P16473)
- Sequence (P16473 whole entry, looked up): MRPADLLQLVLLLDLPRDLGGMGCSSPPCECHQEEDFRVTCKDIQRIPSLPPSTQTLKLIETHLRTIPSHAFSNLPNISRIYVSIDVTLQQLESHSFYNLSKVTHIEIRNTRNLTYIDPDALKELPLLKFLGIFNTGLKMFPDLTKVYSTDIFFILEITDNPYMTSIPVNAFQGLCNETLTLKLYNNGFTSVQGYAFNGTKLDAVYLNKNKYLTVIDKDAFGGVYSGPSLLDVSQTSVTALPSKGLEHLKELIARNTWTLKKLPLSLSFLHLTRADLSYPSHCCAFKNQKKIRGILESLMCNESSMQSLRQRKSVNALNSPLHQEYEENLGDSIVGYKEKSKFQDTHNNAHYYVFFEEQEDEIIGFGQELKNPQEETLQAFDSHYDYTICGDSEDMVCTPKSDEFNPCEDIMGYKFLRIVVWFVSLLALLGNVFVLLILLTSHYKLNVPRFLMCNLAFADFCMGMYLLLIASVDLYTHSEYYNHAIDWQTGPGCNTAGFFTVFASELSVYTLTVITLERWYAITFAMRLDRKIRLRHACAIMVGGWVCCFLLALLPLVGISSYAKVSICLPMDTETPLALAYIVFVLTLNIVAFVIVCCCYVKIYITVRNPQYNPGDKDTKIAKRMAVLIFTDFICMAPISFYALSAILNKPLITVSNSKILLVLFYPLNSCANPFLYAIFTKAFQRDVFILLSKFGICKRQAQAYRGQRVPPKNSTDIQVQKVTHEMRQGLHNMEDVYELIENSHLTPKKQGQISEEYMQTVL
- TEST_DESCRIPTION: qHTS assay to identify small molecule antagonists of the thyroid stimulating hormone receptor (TSHR) signaling pathway (AID 1259385); further: nearly all actives have a fitted effect of over 20% in size
- PROTOCOL_CONDITIONS: TSHR-HEK293 cAMP HTRF, TSH-stimulated antagonist mode; series mostly up to 92.4 µM
Inconclusive results are not listed. Calls of active or inactive are those of the source. Calls come from the whole dose curve.
PROPERTY_MEASURED: outcome

OCCOCCOCCOCCO; inactive
CCCCCCCCC; inactive
CS(=O)(=O)Nc1ccc([N+](=O)[O-])cc1Oc1ccccc1; inactive
C=C(C)C(=O)OCCCCCCCCCCCC; inactive
CC(C)Cc1ccccc1; inactive
CC1=CC[C@H]2C[C@@H]1C2(C)C; inactive
C=C1CC[C@H](O)CC1=C/C=C1\CCC[C@]2(C)[C@@H]([C@H](C)/C=C/[C@H](C)C(C)C)CC[C@@H]12; inactive

* * *

- TEST_DESCRIPTION: A CellTox Green Cytotoxicity Assay to monitor cytotoxicity in HEK293 cells - 40 hour (AID 1224871); further: nearly all actives have a fitted effect of over 45% in size
- PROTOCOL_CONDITIONS: CellTox Green fluorescence; series mostly up to 76.8 µM
- Excerpt: National Center for Advancing Translational Sciences [NCATS] NIH Chemical Genomics Center [NCGC] U.S. Environmental Protection Agency [EPA] National Institutes of Environmental Health Sciences [NIEHS] National Toxicology Program [NTP] Cell-based models are critical for drug discovery. […] Viable cells produce no appreciable increases in fluorescence. Therefore, the fluorescence signal produced by the binding interaction with dead cell DNA is proportional to cytotoxicity. […]
Results filed as inconclusive are left out. Active and inactive are the calls of the source. The call rests on the fitted dose curve; in most records, active means well fitted activation curve with a large enough effect in the repeat runs; inconclusive means weak or mixed curves; inactive means flat fitted curve, though single readings scatter.
PROPERTY_MEASURED: outcome

OC[C@@H](O)[C@@H](O)[C@H](O)[C@@H](O)CO; inactive
CC(C)Cc1ccccc1; inactive
CC1(C)CC(N=C=O)CC(C)(CN=C=O)C1 (stereo not drawn); inactive
Cc1cc(O)cc(C)c1Cl; inactive
Cc1cc(NS(=O)(=O)c2ccc(N)cc2)no1; inactive
CC1=CC[C@H]2C[C@@H]1C2(C)C; inactive
Nc1cc(-c2ccncc2)c[nH]c1=O; inactive
Oc1ccc2ccccc2c1N=Nc1ccccc1; inactive
CS(=O)(=O)Nc1ccc([N+](=O)[O-])cc1Oc1ccccc1; inactive
Oc1c(Cl)cc(Cl)c(Cl)c1Cl; inactive
CC(=O)[C@@]1(O)CC[C@H]2[C@@H]3CCC4=CC(=O)CC[C@]4(C)[C@H]3CC[C@@]21C; inactive
O=C(O)c1cc(-c2ccccc2)nc2ccccc12; inactive
CCCCCCCCCCCCOCC1CO1 (stereo not drawn); inactive

* * *

- TEST_DESCRIPTION: qHTS assay for small molecule agonists of the p53 signaling pathway - cell viability (AID 651633); further: nearly all actives have a fitted effect of over 30% in size
- PROTOCOL_CONDITIONS: p53RE-bla HCT-116 viability, ATP luminescence, 16 h; series mostly up to 83.3 µM
Inconclusive results are not listed. Calls of active or inactive are those of the source. Calls follow the shape of the full dose curve.
Labels: active, inactive

CC(C)(N=C=O)c1cccc(C(C)(C)N=C=O)c1; inactive
Oc1ccc2ccccc2c1; inactive
Nc1c(S(=O)(=O)O)cc(Br)c2c1C(=O)c1ccccc1C2=O; inactive
C=C1C2CCC(C2)C1(C)C (centres undefined); inactive
CCCCC/C=C\C/C=C\CCCCCCCC(=O)OC; inactive
C=C(C)C(=O)OCCCCCC; inactive
NCCNCCNCCNCCN; inactive
CC(C)(C)C1CCC(O)CC1 (centres undefined); inactive
CCCCCC/C=C/CCCCCCCC(=O)O; inactive
CCCCOCCOCCOC(=O)CCCCC(=O)OCCOCCOCCCC; inactive
CC1CC(OC(=O)c2ccccc2O)CC(C)(C)C1 (centres undefined); inactive
Cc1cc(O)cc(C)c1Cl; inactive
CC1=CC[C@H]2C[C@@H]1C2(C)C; inactive
ClC1=C(Cl)C(Cl)(Cl)C(Cl)=C1Cl; active

* * *

- TEST_DESCRIPTION: Caspase-3/7 induction in CHO-K1 cells by small molecules, qHTS assay (AID 1346980); further: nearly all actives have a fitted effect of over 15% in size
- PROTOCOL_CONDITIONS: CHO-K1 caspase-3/7 induction, Caspase-Glo luminescence, 17 h; series mostly up to 92.4 µM
Activity calls are given as the source filed them. The call rests on the fitted dose curve; in most records, active means well fitted activation curve with a large enough effect in the repeat runs; inconclusive means weak or mixed curves; inactive means flat fitted curve, though single readings scatter.
PROPERTY_MEASURED: outcome

CCCCCC/C=C/CCCCCCCC(=O)O; inactive
C=C(C)C(=O)OCCCCCCCCCCCC; inactive
CC(C)NCC(O)COc1cccc2ccccc12 (stereo not drawn); inactive

* * *

- TEST_DESCRIPTION: qHTS assay for small molecule agonists of the p53 signaling pathway (AID 651631); further: nearly all actives have a fitted effect of over 15% in size
- PROTOCOL_CONDITIONS: HCT-116 p53RE-bla reporter, beta-lactamase FRET ratio, 16 h; series mostly up to 73.3 µM
Results filed as inconclusive are left out. Activity calls are given as the source filed them. The call rests on the fitted dose curve.
Labels: t (active), f (inactive)

NC(=O)/N=N/C(N)=O; f
C=C(C)C(=O)OCC(CC)(COC(=O)C(=C)C)COC(=O)C(=C)C; f
CC(C)Cc1ccccc1; f
CCCCOCCO; f
O=S(=O)(O)CCS; f
O=S(=O)(O)c1cc(S(=O)(=O)O)c2c(N=Nc3ccccc3)c(O)ccc2c1; f
CCCCCCCCCCCCN; f
C[C@@H]1O[C@@H](OC[C@H]2O[C@@H](Oc3c(-c4ccc(O)c(O)c4)oc4cc(O)cc(O)c4c3=O)[C@H](O)[C@@H](O)[C@@H]2O)[C@H](O)[C@H](O)[C@H]1O; f
COCC(C)O (configuration not stated); f
C/C=C(C)/C=C/C=C(C)C; f
O=[N+]([O-])c1cccc(Cl)c1; f
NCCc1ccc(O)c(O)c1; f
COC(=O)c1ccccc1O; f
NC(=O)NNc1ccccc1; f
NCc1cccc(CN)c1; f
Cc1cc(O)c2c(c1)C(=O)c1cc(O)cc(O)c1C2=O; t
Nc1nc2ncc(CNc3ccc(C(=O)N[C@@H](CCC(=O)O)C(=O)O)cc3)nc2c(=O)[nH]1; f
C=C(C)C(=O)OCCC[Si](OC)(OC)OC; f
CCOC(=O)[C@H](CCc1ccccc1)N[C@@H](C)C(=O)N1Cc2ccccc2C[C@H]1C(=O)O; f
Clc1ccc(Cl)c(Cl)c1Cl; f
CS(=O)(=O)c1ccc([C@@H](O)[C@@H](CO)NC(=O)C(Cl)Cl)cc1; f
O=C(c1ccc(O)cc1)c1ccc(O)cc1O; t
CCOC(=O)/C=C\C(=O)OCC; f
CC1Cc2ccccc2N1NC(=O)c1ccc(Cl)c(S(N)(=O)=O)c1 (configuration not stated); f
CCCCNC(N)=O; f
Cc1cc(Cc2ccc(N)c(C)c2)ccc1N; f
O=C(O)c1cc(-c2ccccc2)nc2ccccc12; f
